Sourced from ChEMBL document CHEMBL4024713

experiment: Ratio of drug level in prostate to serum in Sprague-Dawley rat at 10 mg/kg, po administered as single dose by LC-MS/MS analysis
Assay type: ADME, organism-based
result_type: Kp

>>> print(df.to_string())
                                   compound  reading
0  c1ccc(N2CCN(CCCN3CCN(c4ccccn4)CC3)CC2)nc1     11.8

###

experiment: Half life in Sprague-Dawley rat hypothalamus at 10 mg/kg, po administered as single dose by LC-MS/MS analysis
Assay type: ADME, organism-based
result_type: half-life (days)

In [3]: df
Out[3]:
                                   compound  result_type  unit_of_measurement  reading
0  c1ccc(N2CCN(CCCN3CCN(c4ccccn4)CC3)CC2)nc1    half-life                 days     5.37

###

experiment: Half life in Sprague-Dawley rat serum at 10 mg/kg, iv administered as single dose by LC-MS/MS analysis
Format: ADME, organism-based
result_type: half-life (h)

>>> print(df.to_string())
                                   compound  result_type  reading
0  c1ccc(N2CCN(CCCN3CCN(c4ccccn4)CC3)CC2)nc1    half-life      5.2

###

experiment: Tmax in Sprague-Dawley rat serum at 10 mg/kg, po administered as single dose by LC-MS/MS analysis
Assay type: ADME, organism-based
result_type: Tmax

                                   compound  reading
0  c1ccc(N2CCN(CCCN3CCN(c4ccccn4)CC3)CC2)nc1      1 h

###

experiment: Cmax in Sprague-Dawley rat hypothalamus at 10 mg/kg, po administered as single dose by LC-MS/MS analysis
Type: ADME, organism-based
Design: dose 10 mg/kg, route oral
result_type: Cmax (ng/g)

>>> print(df.to_string())
                                   compound  result_type  unit_of_measurement  reading
0  c1ccc(N2CCN(CCCN3CCN(c4ccccn4)CC3)CC2)nc1         Cmax                 ng/g      461

###

experiment: AUClast in Sprague-Dawley rat serum at 10 mg/kg, po administered as single dose by LC-MS/MS analysis
Assay type: ADME, organism-based
Design: dose 10 mg/kg, route oral, time 0 - last
result_type: AUC(0-t) (µg·h/mL)

In [3]: df
Out[3]:
                                   compound  unit_of_measurement  reading
0  c1ccc(N2CCN(CCCN3CCN(c4ccccn4)CC3)CC2)nc1              µg·h/mL      0.9

###

experiment: Tmax in Sprague-Dawley rat hypothalamus at 10 mg/kg, po administered as single dose by LC-MS/MS analysis
Type: ADME, organism-based
result_type: Tmax (h)

                                   compound  result_type  reading
0  c1ccc(N2CCN(CCCN3CCN(c4ccccn4)CC3)CC2)nc1         Tmax        1

###

experiment: AUClast in Sprague-Dawley rat serum at 10 mg/kg, iv administered as single dose by LC-MS/MS analysis
Assay type: ADME, organism-based
Parameters: dose 10 mg/kg, route intravenous, time 0 - last
result_type: AUC(0-t) (ng·h/mL)

>>> print(df.to_string())
                                   compound  unit_of_measurement  reading
0  c1ccc(N2CCN(CCCN3CCN(c4ccccn4)CC3)CC2)nc1              ng·h/mL     2500
